molecular target: CXCR4 (Homo sapiens, UniProt P61073); construct: expressed in transfected cells; host or cells: CHO:CXCR4 cells (gift from Drs. David McDermott and Xiaoyuan Chen, NIH); assay: Competitive binding assay: [125I]SDF-1α displacement on CHO:CXCR4 cells; settings: [125I]SDF-1α competition on CHO:CXCR4 cells; given as ranges; read-out: IC50 (nM), Binding Affinity to CXCR4
Sequence (P61073 whole entry): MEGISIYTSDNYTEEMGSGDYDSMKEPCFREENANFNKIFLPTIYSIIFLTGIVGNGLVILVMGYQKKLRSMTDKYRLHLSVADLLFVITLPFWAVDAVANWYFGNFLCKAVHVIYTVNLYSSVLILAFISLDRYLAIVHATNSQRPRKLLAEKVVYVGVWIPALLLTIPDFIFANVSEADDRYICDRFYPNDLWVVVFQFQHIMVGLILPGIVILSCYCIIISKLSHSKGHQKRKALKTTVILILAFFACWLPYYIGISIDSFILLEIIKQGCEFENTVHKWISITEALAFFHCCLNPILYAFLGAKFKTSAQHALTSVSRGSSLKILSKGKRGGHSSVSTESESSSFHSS
Positions of bridges follow the written chain, without caps; N, C: chain ends. Non-standard residues stand in square brackets, D forms with d. Residues, ends and D or L forms follow the SMILES beside them. 2Nal = N[C@@H](Cc1ccc2ccccc2c1)C(=O)O; Lys(iPr) = CC(C)NCCCC[C@H](N)C(=O)O; hTyr = N[C@@H](CCc1ccc(O)cc1)C(=O)O
READOUT_TYPE: IC50

Please review the entries below; each comes with its answer.
COMPOUND	READOUT_TYPE	TEST_VALUE
CC(C)NCCCC[C@H](NC(=O)[C@H]1CCC(=O)N[C@@H](Cc2ccccc2)C(=O)N[C@@H](CCc2ccc(O)cc2)C(=O)N[C@@H](CCCCNC(C)C)C(=O)N[C@H](CCCNC(=N)N)C(=O)N[C@@H](Cc2ccc3ccccc3c2)C(=O)N[C@H](C)C(=O)N1)C(N)=O (F[hTyr][Lys(iPr)][dR][2Nal][dA][dE][Lys(iPr)]-NH2; lactam N-7)	IC50	50 to 100 nM
CC(=O)NCCCC[C@@H]1NC(=O)CC[C@H](C(=O)N[C@@H](CCCCNC(C)C)C(N)=O)NC(=O)CNC(=O)[C@H](Cc2ccc3ccccc3c2)NC(=O)[C@@H](CCCNC(=N)N)NC(=O)[C@H](CCCCNC(C)C)NC(=O)[C@H](Cc2ccc(O)cc2)NC1=O (K(Ac)Y[Lys(iPr)][dR][2Nal]G[dE][Lys(iPr)]-NH2; lactam N-7)	IC50	1 to 10 nM
CC(=O)NCCCC[C@@H]1NC(=O)CC[C@H](C(=O)N[C@@H](CCCCNC(C)C)C(N)=O)NC(=O)[C@@H](C)NC(=O)[C@H](Cc2ccc3ccccc3c2)NC(=O)[C@@H](CCCNC(=N)N)NC(=O)[C@H](CCCCNC(C)C)NC(=O)[C@H](CCC(=O)O)NC1=O (K(Ac)E[Lys(iPr)][dR][2Nal][dA][dE][Lys(iPr)]-NH2; lactam N-7)	IC50	50 to 100 nM

Lab note: next compound to report on.
Query :: Could you share which IC50 value was measured for CC(=O)NCCCC[C@@H]1NC(=O)CC[C@H](C(=O)N[C@@H](CCCCNC(C)C)C(N)=O)NC(=O)[C@@H](C)NC(=O)[C@H](Cc2ccc3ccccc3c2)NC(=O)[C@@H](CCCNC(=N)N)NC(=O)[C@H](CCCCNC(C)C)NC(=O)[C@H](CCC(N)=O)NC1=O (K(Ac)Q[Lys(iPr)][dR][2Nal][dA][dE][Lys(iPr)]-NH2; lactam N-7) ?
Result :: 10 to 50 nM

Data origin: patent US12616761B2
